- System: PfAP2-LT AP2 domain (GST-tagged)
- MEASUREMENT_NOTES: gcPBM binding intensity (ln(normalized median fluorescence intensity)); higher = stronger DNA binding
Over roughly 25,000 sequences, “ln(normalized median fluorescence intensity)” has its median near 8.9; the highest 2% begin near 10. This is one part of a sample in which the highest values are shown more often than they occur.
Mark class 1 for reported gcPBM binding intensity (ln) of 9 or greater; mark class 0 for anything smaller.

>  <RESIDUE_CODES>
AATTATTTATTGAGAGTGCAACAAATTATTTCAAAT [GTGCAC_site9461]

>  <TARGET_DESC>
PfAP2-LT AP2 domain (GST-tagged)

>  <DISCRETE_LABEL>
class 0

$$$$
>  <RESIDUE_CODES>
ATAATACACAAGCACACACACACACGGATATTTATA [CACACA_site6714]

>  <TARGET_DESC>
PfAP2-LT AP2 domain (GST-tagged)

>  <DISCRETE_LABEL>
class 1

$$$$
>  <RESIDUE_CODES>
TTAATTAAGAAACACACACACATATATATATATATT [CACACA_site2290]

>  <TARGET_DESC>
PfAP2-LT AP2 domain (GST-tagged)

>  <DISCRETE_LABEL>
class 1

$$$$
